Tested on: B16 melanoma cells
Assay: Sensitivity of B16 melanoma cells, in vitro cell growth inhibition (Coulter Counter cell count)
Format: cell-based
Conditions: Mus musculus, dosage of 500 /ug/ml, aqueous suspension, incubation 20 hours at 37°C, cells counted 48 hours after beginning of incubation, inhibition of cell growth with respect to control
QUANTITY MEASURED: inhibition at 500 µg/mL

Worked cases, inhibition at 500 µg/mL given:
1. CC(=O)Oc1ccc(Cl)c(C(=O)NC(=O)Nc2ccc(C(F)(F)F)cc2)c1Cl | 80 to 100%
2. O=C(NC(=O)c1c(F)cccc1F)Nc1ccc(Oc2ccc(Cl)cc2)c(Cl)c1 | 40 to 60%

Note: attention shifts to another entry.
Task: Query: inhibition at 500 µg/mL; subject: CC(=O)Oc1cccc(Cl)c1C(=O)NC(=O)Nc1ccc(O)c(C(C)=O)c1
Output: 80 to 100%

Value source: patent EP0136745A2
